biological target: UniProtKB Q72874; test: Inhibitory activity against HIV-1 protease
REPORTED_METRIC: Ki (nM)
Report the value in nM with no unit label.

| COMPOUND | Ki, nM |
| --- | --- |
| Cc1cc(C)nc(NC(=O)c2cccc(CN3C(=O)N(Cc4cccc(C(=O)Nc5cc(C)cc(C)n5)c4)[C@H](Cc4ccccc4)[C@H](O)[C@@H](O)[C@H]3Cc3ccccc3)c2)c1 | 0.016 |
| Cc1ccnc(NC(=O)c2cccc(CN3C(=O)N(Cc4cccc(C(=O)Nc5cc(C)ccn5)c4)[C@H](Cc4ccccc4)[C@H](O)[C@@H](O)[C@H]3Cc3ccccc3)c2)c1 | 0.027 |
| O=C(Nc1ncccn1)c1cccc(CN2C(=O)N(Cc3cccc(C(=O)Nc4ncccn4)c3)[C@H](Cc3ccccc3)[C@H](O)[C@@H](O)[C@H]2Cc2ccccc2)c1 | 0.152 |
| O=C(NCC(F)(F)F)c1cccc(CN2C(=O)N(Cc3cccc(C(=O)NCC(F)(F)F)c3)[C@H](Cc3ccccc3)[C@H](O)[C@@H](O)[C@H]2Cc2ccccc2)c1 | 0.21 |
| O=C(Nc1cnccn1)c1cccc(CN2C(=O)N(Cc3cccc(C(=O)Nc4cnccn4)c3)[C@H](Cc3ccccc3)[C@H](O)[C@@H](O)[C@H]2Cc2ccccc2)c1 | 0.018 |

Now for a further compound.
Record request: Ki value, item Cc1csc(NC(=O)c2cccc(CN3C(=O)N(Cc4cccc(C(=O)Nc5nc(C)cs5)c4)[C@H](Cc4ccccc4)[C@H](O)[C@@H](O)[C@H]3Cc3ccccc3)c2)n1
0.025

----------
In this section, each of the molecules is paired with its reported pKi.
target: Human immunodeficiency virus type 1 protease (Human immunodeficiency virus 1); assay: Inhibitory activity against HIV-1 protease
The value called pKi is obtained by taking minus log10 of the concentration in mol/L.

| COMPOUND | VALUE |
| --- | --- |
| O=C(Nc1ncc(Cl)cc1Cl)c1cccc(CN2C(=O)N(Cc3cccc(C(=O)Nc4ncc(Cl)cc4Cl)c3)[C@H](Cc3ccccc3)[C@H](O)[C@@H](O)[C@H]2Cc2ccccc2)c1 | 9.61 |

Using the record for O=C(Nc1ncc[nH]1)c1cccc(CN2C(=O)N(Cc3cccc(C(=O)Nc4ncc[nH]4)c3)[C@H](Cc3ccccc3)[C@H](O)[C@@H](O)[C@H]2Cc2ccccc2)c1 , report its pKi.
10.85

Can you look up the measured pKi of O=C(Nc1cccnc1)c1cccc(CN2C(=O)N(Cc3cccc(C(=O)Nc4cccnc4)c3)[C@H](Cc3ccccc3)[C@H](O)[C@@H](O)[C@H]2Cc2ccccc2)c1 for me?
9.54

// lookup pKi for O=C(Nc1ccc(Br)cn1)c1cccc(CN2C(=O)N(Cc3cccc(C(=O)Nc4ccc(Br)cn4)c3)[C@H](Cc3ccccc3)[C@H](O)[C@@H](O)[C@H]2Cc2ccccc2)c1
10.46

// query pKi value for entry CCCNC(=O)c1cccc(CN2C(=O)N(Cc3cccc(C(=O)NCCC)c3)[C@H](Cc3ccccc3)[C@H](O)[C@@H](O)[C@H]2Cc2ccccc2)c1
9.44

For the molecule O=C(Nc1ccc(Cl)cn1)c1cccc(CN2C(=O)N(Cc3cccc(C(=O)Nc4ccc(Cl)cn4)c3)[C@H](Cc3ccccc3)[C@H](O)[C@@H](O)[C@H]2Cc2ccccc2)c1 , what pKi is on record?
10.92

----------
molecular target: Human immunodeficiency virus type 1 protease (Human immunodeficiency virus 1); experiment: Inhibitory activity against HIV-1 protease
REPORTED_METRIC: pKi
Remember the convention: pKi equals -log10 of concentration in molar.

| MOLECULE | SUBJECT_OF_TEST | pKi |
| --- | --- | --- |
| Cc1cccc(NC(=O)c2cccc(CN3C(=O)N(Cc4cccc(C(=O)Nc5cccc(C)n5)c4)[C@H](Cc4ccccc4)[C@H](O)[C@@H](O)[C@H]3Cc3ccccc3)c2)n1 | Human immunodeficiency virus type 1 protease (Human immunodeficiency virus 1) | 10.70 |
| CNC(=O)c1cccc(CN2C(=O)N(Cc3cccc(C(=O)NC)c3)[C@H](Cc3ccccc3)[C@H](O)[C@@H](O)[C@H]2Cc2ccccc2)c1 (stereo in doubt; 31) | Human immunodeficiency virus type 1 protease (Human immunodeficiency virus 1) | 8.72 |

# next molecule below
Entry under review: O=C(Nc1ccc(C(F)(F)F)cn1)c1cccc(CN2C(=O)N(Cc3cccc(C(=O)Nc4ccc(C(F)(F)F)cn4)c3)[C@H](Cc3ccccc3)[C@H](O)[C@@H](O)[C@H]2Cc2ccccc2)c1 . Reported pKi?
10.07

----------
// reported pKi for each item listed
molecular target: Human immunodeficiency virus type 1 protease (Human immunodeficiency virus 1, UniProt Q72874); assay: Binding affinity for HIV-1 protease
The value called pKi is obtained by taking minus log10 of the concentration in mol/L.

Known results for molecules:
| COMPOUND | VALUE |
| --- | --- |
| Cc1ccnc(NC(=O)c2cccc(CN3C(=O)N(Cc4cccc(C(=O)Nc5cc(C)ccn5)c4)[C@H](Cc4ccccc4)[C@H](O)[C@@H](O)[C@H]3Cc3ccccc3)c2)c1 | 10.52 |
| N#CCNC(=O)c1cccc(CN2C(=O)N(Cc3cccc(C(=O)NCC#N)c3)[C@H](Cc3ccccc3)[C@H](O)[C@@H](O)[C@H]2Cc2ccccc2)c1 | 10.20 |
| Cc1cc(C)nc(NC(=O)c2cccc(CN3C(=O)N(Cc4cccc(C(=O)Nc5cc(C)cc(C)n5)c4)[C@H](Cc4ccccc4)[C@H](O)[C@@H](O)[C@H]3Cc3ccccc3)c2)c1 | 10.70 |

Name the reported pKi value associated with the molecule O=C(Nc1ccccn1)c1cccc(CN2C(=O)N(Cc3cccc(C(=O)Nc4ccccn4)c3)[C@H](Cc3ccccc3)[C@H](O)[C@@H](O)[C@H]2Cc2ccccc2)c1
11.00

----------
system: Human immunodeficiency virus 1; test: The concentration required to inhibit HIV-1 RNA synthesis by 90%. Viral RNA quantified by a sandwich hybridization assay; format: functional; settings: Human immunodeficiency virus 1
Listing of entries alongside the reported IC90.
Your answer is read as µM, so omit the unit and give the number.

| COMPOUND | REPORTED_METRIC | QUANTITY_UNIT | VALUE |
| --- | --- | --- | --- |
| O=C(Nc1ncc[nH]1)c1cccc(CN2C(=O)N(Cc3cccc(C(=O)Nc4ncc[nH]4)c3)[C@H](Cc3ccccc3)[C@H](O)[C@@H](O)[C@H]2Cc2ccccc2)c1 | IC90 | µM | 0.0455 |
| Cc1coc(NC(=O)c2cccc(CN3C(=O)N(Cc4cccc(C(=O)Nc5nc(C)co5)c4)[C@H](Cc4ccccc4)[C@H](O)[C@@H](O)[C@H]3Cc3ccccc3)c2)n1 | IC90 | µM | 0.0596 |

Turning now to a further record.
Please give the measured IC90 for this compound: CC(C)(C)NC(=O)[C@@H]1C[C@@H]2CCCC[C@@H]2CN1C[C@@H](O)[C@H](Cc1ccccc1)NC(=O)[C@H](CC(N)=O)NC(=O)c1ccc2ccccc2n1
0.0104

----------
tested on: Human immunodeficiency virus 1; test: The concentration required to inhibit HIV-1 RNA synthesis by 90%. Viral RNA quantified by a sandwich hybridization assay; type: functional; conditions: Human immunodeficiency virus 1
REPORTED_METRIC: IC90
Number first, unit second.

Some entries whose results are on file:
| COMPOUND | IC90 |
| --- | --- |
| CONC(=O)c1cccc(CN2C(=O)N(Cc3cccc(C(=O)NOC)c3)[C@H](Cc3ccccc3)[C@H](O)[C@@H](O)[C@H]2Cc2ccccc2)c1 | 214 nM |
| O=C(Nc1cccnc1)c1cccc(CN2C(=O)N(Cc3cccc(C(=O)Nc4cccnc4)c3)[C@H](Cc3ccccc3)[C@H](O)[C@@H](O)[C@H]2Cc2ccccc2)c1 | 123 nM |

Here is the next item to consider.
For O=C(Nc1nc2ccccc2[nH]1)c1cccc(CN2C(=O)N(Cc3cccc(C(=O)Nc4nc5ccccc5[nH]4)c3)[C@H](Cc3ccccc3)[C@H](O)[C@@H](O)[C@H]2Cc2ccccc2)c1 , what is its reported IC90?
3.9 nM

----------
Overview of recorded IC90 for various compounds
system: Human immunodeficiency virus 1; experiment: The concentration required to inhibit HIV-1 RNA synthesis by 90%. Viral RNA quantified by a sandwich hybridization assay; assay type: functional; conditions: Human immunodeficiency virus 1
Dear colleague, please return just the value in nM, with no unit written.

Consider the following illustrative entries.
| COMPOUND | QUANTITY_UNIT | IC90 |
| --- | --- | --- |
| O=C(Nc1ccc(C(F)(F)F)cn1)c1cccc(CN2C(=O)N(Cc3cccc(C(=O)Nc4ccc(C(F)(F)F)cn4)c3)[C@H](Cc3ccccc3)[C@H](O)[C@@H](O)[C@H]2Cc2ccccc2)c1 | nM | 63.4 |
| O=C(Nc1cnccn1)c1cccc(CN2C(=O)N(Cc3cccc(C(=O)Nc4cnccn4)c3)[C@H](Cc3ccccc3)[C@H](O)[C@@H](O)[C@H]2Cc2ccccc2)c1 | nM | 3.5 |
| CC(C)(C)NC(=O)c1cccc(CN2C(=O)N(Cc3cccc(C(=O)NC(C)(C)C)c3)[C@H](Cc3ccccc3)[C@H](O)[C@@H](O)[C@H]2Cc2ccccc2)c1 | nM | 717 |
| NNC(=O)c1cccc(CN2C(=O)N(Cc3cccc(C(=O)NN)c3)[C@H](Cc3ccccc3)[C@H](O)[C@@H](O)[C@H]2Cc2ccccc2)c1 | nM | 884 |
| Cc1cc(C)nc(NC(=O)c2cccc(CN3C(=O)N(Cc4cccc(C(=O)Nc5cc(C)cc(C)n5)c4)[C@H](Cc4ccccc4)[C@H](O)[C@@H](O)[C@H]3Cc3ccccc3)c2)c1 | nM | 6.6 |

Would you kindly share the measured IC90 for N#CCNC(=O)c1cccc(CN2C(=O)N(Cc3cccc(C(=O)NCC#N)c3)[C@H](Cc3ccccc3)[C@H](O)[C@@H](O)[C@H]2Cc2ccccc2)c1 ?
596
